Sourced from paper PMC10041525

Tested on: 100 A. baumannii strains (50 MDR, 50 non-MDR)
Assay: MIC broth microdilution at IHMA Europe, panel of 100 strains
Assay type: cell-based
Settings: Acinetobacter baumannii, A. baumannii IHMA 2051503, Serbia 2019, MDR; read-out: MIC
Each item that follows carries a reported MIC.

The examples below pair each entry with its known result.
- Molecule: "C[C@@H](O)[C@H]1C(=O)N2C(C(=O)O)=C(S[C@@H]3CN[C@H](C(=O)N(C)C)C3)[C@H](C)[C@H]12"
  MIC: "> 16 µg/mL"
- Molecule: "CN(C)c1cc(NC(=O)CNC(C)(C)C)c(O)c2c1C[C@H]1C[C@H]3[C@H](N(C)C)C(O)=C(C(N)=O)C(=O)[C@@]3(O)C(O)=C1C2=O"
  MIC: "2 µg/mL"
- Molecule: "CO/N=C(\\C(=O)N[C@@H]1C(=O)N2C(C(=O)[O-])=C(C[N+]3(C)CCCC3)CS[C@H]12)c1csc(N)n1 [Cefepime, cefepime]"
  MIC: "> 32 µg/mL"
- Molecule: "Cc1[nH]c(C(=O)Nc2nc3c(N4[C@@H]5CC[C@H]4COC5)cc(C(=O)O)cc3s2)c(Cl)c1Cl"
  MIC: "2 µg/mL"
- Molecule: "O=C(O)c1cn(C2CC2)c2cc(N3CCNCC3)c(F)cc2c1=O"
  MIC: "> 16 µg/mL"

Specify measured MIC for C[C@@H](O)[C@H]1C(=O)N2C(C(=O)O)=C(SCCNC=N)C[C@H]12 .
> 16 µg/mL

* * *

Examples of molecules with documented MIC follow.
Test system: 100 A. baumannii strains (50 MDR, 50 non-MDR)
Experiment: MIC broth microdilution at IHMA Europe, panel of 100 strains
Format: cell-based
Details: Acinetobacter baumannii, A. baumannii IHMA 1849829, Kuwait 2018, Non-MDR; read-out: MIC

- Molecule: "CO/N=C(\\C(=O)N[C@@H]1C(=O)N2C(C(=O)[O-])=C(C[N+]3(C)CCCC3)CS[C@H]12)c1csc(N)n1 [Cefepime, cefepime]"
  Result: "1 µg/mL"
- Molecule: "Cc1[nH]c(C(=O)Nc2nc3c(N4[C@@H]5CC[C@H]4COC5)cc(C(=O)O)cc3s2)c(Cl)c1Cl [7h]"
  Result: "4 µg/mL"
- Molecule: "O=C(O)c1cn(C2CC2)c2cc(N3CCNCC3)c(F)cc2c1=O [ciprofloxacin]"
  Result: "≤ 0.06 µg/mL"

Now look at this entry.
# lookup: 100 A. baumannii strains (50 MDR, 50 non-MDR) MIC, key = C[C@@H](O)[C@H]1C(=O)N2C(C(=O)O)=C(SCCNC=N)C[C@H]12 [Imipenem, imipenem]
≤ 0.25 µg/mL

* * *

Test: physchem
Assay type: physicochemical
Conditions: PBS, 37 °C, 24 h, mean of two
The entries below come with measured thermodynamic solubility (pH = 7.4) values attached.
Write the answer as a number in µM, unit excluded.

Previously resolved entries follow.
- Compound: "COC[C@@H]1CCCN1c1cc(C(=O)O)cc2sc(NC(=O)c3[nH]c(C)c(Cl)c3Cl)nc12"
  Attribute measured: "thermodynamic solubility (pH = 7.4)"
  Quantity unit: "µM"
  Numeric readout: 10.98
- Compound: "Cc1[nH]c(C(=O)Nc2nc3c(N4CCOCC4)cc(C(=O)O)cc3s2)cc1Cl [16a]"
  Attribute measured: "thermodynamic solubility (pH = 7.4)"
  Quantity unit: "µM"
  Numeric readout: 137.58
- Compound: "Cc1[nH]c(C(=O)Nc2nc3c(N4CCOC[C@H]4C)cc(C(=O)O)cc3s2)c(Cl)c1Cl"
  Attribute measured: "thermodynamic solubility (pH = 7.4)"
  Quantity unit: "µM"
  Numeric readout: 10.14
- Compound: "Cc1[nH]c(C(=O)Nc2nc3c(N4CCOC(C)C4)cc(C(=O)O)cc3s2)c(Cl)c1Cl (stereo not drawn)"
  Attribute measured: "thermodynamic solubility (pH = 7.4)"
  Quantity unit: "µM"
  Numeric readout: 80.35
- Compound: "COCC1CCCN1c1cc(C(=O)O)cc2sc(NC(=O)c3[nH]c(C)c(Cl)c3Cl)nc12 (stereo not drawn)"
  Attribute measured: "thermodynamic solubility (pH = 7.4)"
  Quantity unit: "µM"
  Numeric readout: 11.18

Now take the following compound into account.
Please look at this compound and report its thermodynamic solubility (pH = 7.4): Cc1[nH]c(C(=O)Nc2nc3c(N4CCOC[C@@H]4C)cc(C(=O)O)cc3s2)c(Cl)c1Cl
5.84
